target: H1047R PIK3CA enzyme (Homo sapiens, UniProt P42336, H1047R); assay: ADP-Glo Biochemical PIK3CA Kinase Assay
Sequence (P42336 whole entry H1047R): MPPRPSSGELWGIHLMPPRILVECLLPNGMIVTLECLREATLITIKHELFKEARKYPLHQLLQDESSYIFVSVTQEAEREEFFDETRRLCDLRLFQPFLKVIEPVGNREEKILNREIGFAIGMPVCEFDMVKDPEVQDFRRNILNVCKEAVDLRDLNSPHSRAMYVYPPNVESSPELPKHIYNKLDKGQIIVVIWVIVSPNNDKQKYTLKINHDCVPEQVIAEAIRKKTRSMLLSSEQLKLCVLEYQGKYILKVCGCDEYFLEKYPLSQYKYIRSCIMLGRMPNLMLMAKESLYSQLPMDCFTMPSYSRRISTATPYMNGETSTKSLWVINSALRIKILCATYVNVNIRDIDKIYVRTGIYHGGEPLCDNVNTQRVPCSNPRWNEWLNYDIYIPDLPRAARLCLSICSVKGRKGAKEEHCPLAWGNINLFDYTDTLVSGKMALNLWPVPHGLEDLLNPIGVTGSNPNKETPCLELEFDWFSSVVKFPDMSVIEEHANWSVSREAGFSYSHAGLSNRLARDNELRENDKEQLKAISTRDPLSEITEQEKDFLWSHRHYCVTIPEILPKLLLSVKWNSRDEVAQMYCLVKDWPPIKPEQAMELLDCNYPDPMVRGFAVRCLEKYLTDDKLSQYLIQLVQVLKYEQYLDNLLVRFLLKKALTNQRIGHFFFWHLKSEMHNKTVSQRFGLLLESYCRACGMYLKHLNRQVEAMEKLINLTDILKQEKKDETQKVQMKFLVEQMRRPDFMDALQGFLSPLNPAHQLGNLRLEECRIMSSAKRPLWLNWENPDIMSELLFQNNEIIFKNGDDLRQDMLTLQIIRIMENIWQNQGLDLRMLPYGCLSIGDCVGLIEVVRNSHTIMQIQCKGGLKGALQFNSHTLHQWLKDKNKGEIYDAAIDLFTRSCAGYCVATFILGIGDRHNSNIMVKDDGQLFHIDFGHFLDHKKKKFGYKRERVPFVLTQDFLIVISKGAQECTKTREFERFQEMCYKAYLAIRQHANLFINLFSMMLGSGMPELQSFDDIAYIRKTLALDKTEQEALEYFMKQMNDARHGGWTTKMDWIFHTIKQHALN
Sequence (P27986 whole entry partner): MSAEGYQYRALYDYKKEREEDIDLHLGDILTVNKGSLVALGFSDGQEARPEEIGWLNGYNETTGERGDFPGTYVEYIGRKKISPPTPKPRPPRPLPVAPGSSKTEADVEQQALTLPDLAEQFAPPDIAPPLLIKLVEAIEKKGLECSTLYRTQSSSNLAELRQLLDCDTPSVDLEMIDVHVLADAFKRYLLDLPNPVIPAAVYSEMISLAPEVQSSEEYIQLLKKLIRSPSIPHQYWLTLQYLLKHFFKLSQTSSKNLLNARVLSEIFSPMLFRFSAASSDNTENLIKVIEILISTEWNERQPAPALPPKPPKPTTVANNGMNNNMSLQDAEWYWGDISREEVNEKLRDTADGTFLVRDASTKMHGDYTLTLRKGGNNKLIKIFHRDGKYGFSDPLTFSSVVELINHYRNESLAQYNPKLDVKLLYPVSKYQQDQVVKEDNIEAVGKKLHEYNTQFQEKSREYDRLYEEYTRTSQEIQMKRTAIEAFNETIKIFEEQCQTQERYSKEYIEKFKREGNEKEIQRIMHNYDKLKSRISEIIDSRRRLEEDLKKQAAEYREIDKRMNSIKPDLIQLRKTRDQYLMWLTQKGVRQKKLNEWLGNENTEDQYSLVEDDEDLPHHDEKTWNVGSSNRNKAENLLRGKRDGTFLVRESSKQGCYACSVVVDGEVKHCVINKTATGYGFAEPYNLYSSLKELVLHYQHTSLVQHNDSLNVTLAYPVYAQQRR
pIC50: −log10 of the molar value.
pIC50 by entry:

Worked examples follow.
O=C1NCc2c(NC(=O)c3coc4ccc(Cl)cc34)cccc21    4.00 to 5.00
O=C1NC(c2cc(F)ccc2Cl)c2c(NC(=O)N3CC(O)(C(F)F)c4cc(F)ccc43)cc(F)cc21 (centres unmarked)    ≥ 7.00
O=C(Nc1cc(-c2ccc3ncnn3c2)cc2c1C(c1cc(F)ccc1Cl)NC2=O)c1cc(F)cc2c1NC(=O)C2(F)F (centres unmarked)    ≥ 7.00
CC(C)(O)Cc1cc(NC(=O)c2cc(F)cc(Cl)c2)c2c(c1)C(=O)N[C@H]2c1cc(F)ccc1Cl [Compound I-963]    6.00 to 6.30

### Prompt Quick one: pIC50 of O=C1NC(c2cc(F)ccc2Cl)c2c(NC(=O)C34CCC(CC3)O4)cc(-c3ccc4ncnn4c3)cc21 (centres unmarked) ?
### Response 4.00 to 5.00

* * *

target: H1047R PIK3CA enzyme (Homo sapiens, UniProt P42336, H1047R); assay: ADP-Glo Biochemical PIK3CA Kinase Assay
Some molecules, each annotated with its measured IC50.

Worked set:
CC(C)(O)c1cc(NC(=O)N2CCc3ccccc32)c2c(c1)C(=O)NC2c1cc(F)ccc1Cl (stereo not shown)    ≤ 0.1 µM
Cc1ccccc1C1NC(=O)c2cccc(NC(=O)c3c[nH]c(=O)c(Br)c3C)c21 (stereo not shown)    10 to 100 µM
O=C1NC(c2cc(F)ccc2Cl)c2c1cc(-c1ccc3ncnn3c1)cc2C1=CCCNC1 (stereo not shown)    10 to 100 µM

# ---- query molecule ----
### Prompt Requested read-out IC50, target or system H1047R PIK3CA enzyme (Homo sapiens, UniProt P42336, H1047R), entry Cc1ccccc1C1NC(=O)c2cccc(NC(=O)c3n[nH]c4ccccc34)c21 (stereo not shown)
### Response 10 to 100 µM

* * *

Item-by-item account of IC50
target: H1047R PIK3CA enzyme (Homo sapiens, UniProt P42336, H1047R); experiment: ADP-Glo Biochemical PIK3CA Kinase Assay

Worked examples, 3 compounds total:
N#CC[C@H](O)c1cc(NC(=O)c2cc(F)cc(C(F)(F)F)c2)c2c(c1)C(=O)N[C@@H]2c1cc(F)ccc1Cl (single isomer, unassigned)    1000 to 10000 nM
Cc1ccccc1C1NC(=O)Oc2cccc(NC(=O)c3csc4ccccc34)c21 (centres unmarked)    100 to 500 nM
CC(C)(O)C(=O)Nc1cc(NC(=O)c2cc(F)cc(C(F)(F)F)c2)c2c(c1)C(=O)NC2c1cc(F)ccc1Cl (centres unmarked)    ≤ 100 nM

Attention now shifts to the item below.
### Prompt Report IC50 for CC(C#N)c1cc(NC(=O)c2cc(F)cc(C(F)(F)F)c2)c2c(c1)C(=O)N[C@H]2c1cc(F)ccc1Cl (some centres unmarked) please.
### Response ≤ 100 nM

* * *

molecular target: H1047R PIK3CA enzyme (Homo sapiens, UniProt P42336, H1047R); test: ADP-Glo Biochemical PIK3CA Kinase Assay
pIC50: −log10 of the molar value.
Assay Endpoint: pIC50

O=C(Nc1cc(-c2ccn3nc(Cl)nc3c2)cc2c1[C@H](c1cc(F)ccc1Cl)NC2=O)c1cc(F)cc(C(F)(F)F)c1    ≥ 7.00
O=C1NCc2c(NC(=O)c3csc4c3CCCC4)cccc21    4.00 to 5.00
Cc1ccccc1C1NC(=O)c2cccc(NCc3nsc4ccccc34)c21 (centres unmarked)    4.00 to 5.00

### Prompt Checklist item: pIC50 tested on H1047R PIK3CA enzyme (Homo sapiens, UniProt P42336, H1047R), entry O=C(Nc1cc(-c2ccc3ncnn3c2)cc2c1C(c1cc(F)ccc1Cl)NC2=O)c1ccccc1 (centres unmarked) , value?
### Response 5.00 to 6.00

### Prompt For the record CSCc1cc(NC(=O)c2cc(F)cc(C(F)(F)F)c2)c2c(c1)C(=O)NC2c1cc(F)ccc1Cl (centres unmarked) , what value of pIC50 is listed for H1047R PIK3CA enzyme (Homo sapiens, UniProt P42336, H1047R)?
### Response ≥ 7.00
